The reported numbers originate from patent US10167299B2.

- method description: Pharmacokinetic experiment on Beagles
- experimental conditions: male, beagle, dog, plasma, oral
property label: bioavailability (%)

| compound | assay result |
| --- | --- |
| Cc1nnc(C(C)C)n1C1CC2CCC(C1)N2CC[C@H](NC(=O)C1CCC(F)(F)CC1)c1ccsc1 (stereo partly shown) | 9.98 |

* * *

Let's look at some compounds and their measured IC50.
- tgt: CYP3A4-M (Homo sapiens (Human))
- Sequence (P08684 whole entry): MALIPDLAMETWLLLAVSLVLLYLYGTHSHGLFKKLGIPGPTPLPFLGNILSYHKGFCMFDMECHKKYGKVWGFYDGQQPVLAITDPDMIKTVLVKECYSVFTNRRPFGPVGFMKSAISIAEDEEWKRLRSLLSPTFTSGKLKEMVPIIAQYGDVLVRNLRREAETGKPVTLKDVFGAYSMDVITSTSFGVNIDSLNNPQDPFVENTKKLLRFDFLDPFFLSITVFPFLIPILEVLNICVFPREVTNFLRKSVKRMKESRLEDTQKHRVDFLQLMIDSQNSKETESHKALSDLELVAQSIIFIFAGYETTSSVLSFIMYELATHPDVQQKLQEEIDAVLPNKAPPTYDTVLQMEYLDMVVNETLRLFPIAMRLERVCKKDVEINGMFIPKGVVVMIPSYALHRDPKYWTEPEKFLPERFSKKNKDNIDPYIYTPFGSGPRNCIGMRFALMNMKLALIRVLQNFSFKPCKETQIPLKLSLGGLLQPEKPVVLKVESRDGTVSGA
- method description: CYP450 inhibition activity assay (Vivid kit) CYP3A4-M
- experimental conditions: CYP450 subtype (μM) 3A4-M (IC50)
property label: IC50 (µM)

| compound | property label | qualifier | assay result |
| --- | --- | --- | --- |
| Cc1nnc(C(C)C)n1C1CC2CCC(C1)N2CC[C@H](NC(=O)C1CCCC1)c1cccs1 (some centres unmarked) | IC50 | > | 25 |
| Cc1nnc(C(C)C)n1C1CCN(CC[C@H](NC(=O)C2CCCC2)c2cccs2)CC1 | IC50 | > | 25 |
| Cc1nnc(C(C)C)n1C1CC2CCC(C1)N2CC[C@H](NC(=O)C1CCC(F)(F)CC1)c1ccsc1 (some centres unmarked) | IC50 | > | 25 |
| Cc1ccc([C@H](CCN2C3CCC2CC(n2c(C)nnc2C(C)C)C3)NC(=O)C2CCC(F)(F)CC2)s1 (some centres unmarked) | IC50 | = | 10.9 |
| Cc1nnc(C(C)C)n1C1CC2CCC(C1)N2CC[C@H](NC(=O)C1CCCCC1)c1cccs1 (some centres unmarked) | IC50 | = | 12.3 |

* * *

Readings of AUC0-t ng/mL * h for the listed compounds
- experimental conditions: male, rat, in vivo, po, 20 mg/kg

| compound | AUC0-t ng/mL * h [ng·h/mL] |
| --- | --- |
| Cc1nnc(C(C)C)n1C1CC2CCC(C1)N2CC[C@H](NC(=O)C1CCCCC1)c1cccs1 (some centres unmarked) | 1512.3 |
| Cc1nnc(C(C)C)n1C1CC2CCC(C1)N2CC[C@H](NC(=O)C1CCC(F)(F)CC1)c1cccs1 (some centres unmarked) | 1108 |
| Cc1nnc(C(C)C)n1C1CC2CCC(C1)N2CC[C@H](NC(=O)C1CCCC1)c1cccs1 (some centres unmarked) | 2801.1 |
| Cc1ccc([C@H](CCN2C3CCC2CC(n2c(C)nnc2C(C)C)C3)NC(=O)C2CCC(F)(F)CC2)s1 (some centres unmarked) | 1870.7 |
| Cc1nnc(C(C)C)n1C1CC2CCC(C1)N2CC[C@H](NC(=O)C1CCC(F)(F)CC1)c1ccsc1 (some centres unmarked) | 1206 |

* * *

- method description: Pharmacokinetic experiment of rats
- experimental conditions: male, rat, plasma, po, 20 mg/kg
property label: AUC(0-inf) (ng·h/mL)

| compound | property label | assay result |
| --- | --- | --- |
| Cc1nnc(C(C)C)n1C1CCN(CC[C@H](NC(=O)C2CCCC2)c2cccs2)CC1 [Compound 17] | AUC(0-inf) | 364 |

* * *

- method description: Pharmacokinetic experiment of rats
- experimental conditions: male, rat, plasma, iv, 10 mg/kg

| smiles str | Cmax [ng/mL] |
| --- | --- |
| Cc1nnc(C(C)C)n1C1CCN(CC[C@H](NC(=O)C2CCCC2)c2cccs2)CC1 | 246 |

* * *

- method description: in vivo
- experimental conditions: male, rat, po, 20 mg/kg

| compound | bioavailability (%) |
| --- | --- |
| Cc1nnc(C(C)C)n1C1CC2CCC(C1)N2CC[C@H](NC(=O)C1CCC(F)(F)CC1)c1ccsc1 (stereo partly shown) [Compound 22] | 14.5 |
| Cc1nnc(C(C)C)n1C1CC2CCC(C1)N2CC[C@H](NC(=O)C1CCCCC1)c1cccs1 (stereo partly shown) [Compound 16] | 14.8 |
| Cc1nnc(C(C)C)n1C1CC2CCC(C1)N2CC[C@H](NC(=O)C1CCCC1)c1cccs1 (stereo partly shown) [Compound 18] | 90.5 |
| Cc1nnc(C(C)C)n1C1CC2CCC(C1)N2CC[C@H](NC(=O)C1CCC(F)(F)CC1)c1cccs1 (stereo partly shown) [Compound 14] | 7.85 |
